Ref: BindingDB's records for doi:10.1016/j.bmc.2006.03.021

Below is a list of entries, each paired with its recorded IC50 value.
- Target Or Test System: Serine/threonine-protein kinase Chk1 (Homo sapiens, UniProt O14757)
- Sequence (O14757 whole entry): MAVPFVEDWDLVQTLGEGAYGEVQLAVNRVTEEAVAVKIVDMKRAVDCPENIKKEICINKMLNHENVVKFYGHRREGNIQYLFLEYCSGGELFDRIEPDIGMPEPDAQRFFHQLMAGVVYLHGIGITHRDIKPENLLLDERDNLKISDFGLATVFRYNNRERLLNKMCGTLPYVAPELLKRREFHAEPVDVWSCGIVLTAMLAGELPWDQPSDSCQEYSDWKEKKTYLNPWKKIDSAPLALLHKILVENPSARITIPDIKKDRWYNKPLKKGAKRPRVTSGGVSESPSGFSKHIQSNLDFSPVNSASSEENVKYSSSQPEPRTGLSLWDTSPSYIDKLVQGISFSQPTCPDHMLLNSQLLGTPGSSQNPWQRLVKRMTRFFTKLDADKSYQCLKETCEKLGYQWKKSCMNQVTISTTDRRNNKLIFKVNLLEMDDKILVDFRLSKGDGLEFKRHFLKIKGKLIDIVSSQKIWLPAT

| Given Smiles | Readout Unit | IC50 |
| --- | --- | --- |
| Nc1ncnc2nc(SCC(=O)O)[nH]c12 | µM | 31.8 |
| NCCCNc1nc(F)c(Cl)c(C2c3ccccc3Sc3ccccc32)c1F | µM | 15.8 |
